molecular target: PDCD6 (Homo sapiens, UniProt O75340); assay: SPR
Sequence (O75340 2-191): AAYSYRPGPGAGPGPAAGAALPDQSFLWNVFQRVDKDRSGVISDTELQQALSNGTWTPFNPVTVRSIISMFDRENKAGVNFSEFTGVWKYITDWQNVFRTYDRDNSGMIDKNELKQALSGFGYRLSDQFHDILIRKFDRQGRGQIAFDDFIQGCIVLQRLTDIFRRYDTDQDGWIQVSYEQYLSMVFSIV
Below, each entry is listed alongside its reported Kd.
Readout Label: Kd (µM)

# Binder, Readout Label, Display Unit, Observed
records = [
    ("SCBD (Sorcin calcium-binding domain) 33-198 (protein, Ca2+ (100 uM CaCl2)) DPLYGYFAAVAGQDGQIDADELQRCLTQSGIAGGYKPFNLETCRLMVSMLDRDMSGTMGFNEFKELWAVLNGWRQHFISFDTDRSGTVDPQELQKALTTMGFRLSPQAVNSIAKRYSTNGKITFDDYIACCVKLRALTDSFRRRDTAQQGVVNFPYDDFIQCVMSV", "Kd", "µM", 3.5),
    ("SCBD (Sorcin calcium-binding domain) 33-198 (protein) DPLYGYFAAVAGQDGQIDADELQRCLTQSGIAGGYKPFNLETCRLMVSMLDRDMSGTMGFNEFKELWAVLNGWRQHFISFDTDRSGTVDPQELQKALTTMGFRLSPQAVNSIAKRYSTNGKITFDDYIACCVKLRALTDSFRRRDTAQQGVVNFPYDDFIQCVMSV", "Kd", "µM", 5),
    ("Sorcin (protein, Ca2+ (100 uM CaCl2)) MAYPGHPGAGGGYYPGGYGGAPGGPAFPGQTQDPLYGYFAAVAGQDGQIDADELQRCLTQSGIAGGYKPFNLETCRLMVSMLDRDMSGTMGFNEFKELWAVLNGWRQHFISFDTDRSGTVDPQELQKALTTMGFRLSPQAVNSIAKRYSTNGKITFDDYIACCVKLRALTDSFRRRDTAQQGVVNFPYDDFIQCVMSV", "Kd", "µM", 3.5),
]

Value source: paper PMC4649501
